# testedOn: Endothelin-converting enzyme 1 (Sus scrofa)
# assayMethodText: Compound was evaluated for inhibition of Endothelin-converting enzyme 1 partially purified from porcine primary aortic endothelial cells
pIC50: −log10 of the molar value.
recordedMetric: pIC50

O=C(N[C@@H](CS)Cc1c[nH]c2ccccc12)C1CCN(C(=O)Cc2ccc(-c3ccccc3)cc2)CC1: 5.19
O=C(CCC(C(=O)O)c1ccccc1)N[C@@H](CS)Cc1c[nH]c2ccccc12 (stereo not given in full): 5.27
O=C(N[C@@H](CS)Cc1c[nH]c2ccccc12)c1cccs1: 5.28
O=C(Cc1ccc(-c2ccccc2)cc1)N[C@@H](CS)Cc1cccnc1: 5.28
O=C(Cc1ccc(OCc2cccnc2)cc1)N[C@@H](CS)Cc1c[nH]c2ccccc12: 5.11
